These entries and their values trace back to the supplement of paper PMC6555819.

# System: PPARg:RXRa 90nM:30nM, anti-RXR (NR concentration 90 nM, RXRa partner concentration 30 nM)
# Experiment Notes: PBM binding z-score (relative to random genomic background probes); higher = stronger binding; sequences stand for … in GC…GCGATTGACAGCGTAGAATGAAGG

- Sequence String: "ATCTCTAGGTAAGACTCAGGTCAGTGAAGAACGC"
  PBM binding z-score: 0.413
- Sequence String: "AGTCAAAGTTCAGGACGAGGTAACTTAAAGCACG"
  PBM binding z-score: 3.7
- Sequence String: "ACAGACAGGTGATGAAGGTAACTCGGGCTATCAT"
  PBM binding z-score: -0.242
- Sequence String: "TCTTGTAGTTCAAGCAGGTTAAGAAAGCCTGAGT"
  PBM binding z-score: 1.94
- Sequence String: "TAGCCTTGGTCATTGGGCCAGTATAGTACGCATC"
  PBM binding z-score: -0.429
- Sequence String: "ACTAGTTGGTCAGCCGAGGTCACACACAATTCGG"
  PBM binding z-score: 2.06

====

# System: PPARg homodimer (NR concentration 180 nM)
# Experiment Notes: PBM binding z-score (relative to random genomic background probes); higher = stronger binding; sequences stand for … in GC…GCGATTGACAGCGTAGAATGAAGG
In this section, each of the sequences is paired with its reported PBM binding z-score.

- Sequence String: "AGAATGAGGTTACCAAAGATCTGGGAAACGCTTG"
  System: "PPARg homodimer (NR concentration 180 nM)"
  PBM binding z-score: 0.163
- Sequence String: "CCTGCTAGGGCAATGGTCAGCTAAAGCAGCTCGC"
  System: "PPARg homodimer (NR concentration 180 nM)"
  PBM binding z-score: -0.322
- Sequence String: "TCAAACAGGTGAAGGTAACTCAGGTACGCAGTCG"
  System: "PPARg homodimer (NR concentration 180 nM)"
  PBM binding z-score: 0.662
- Sequence String: "GCATATAGGTAATACAAGGTGAAAGGCCGATTGT"
  System: "PPARg homodimer (NR concentration 180 nM)"
  PBM binding z-score: 0.878
- Sequence String: "ATCGAAAGGTCGAGGTGTGTATAGAGAAAGGGAA"
  System: "PPARg homodimer (NR concentration 180 nM)"
  PBM binding z-score: 1.6
- Sequence String: "GGAACGAGGGCAAAGTTGATATCATCTGTCGACG"
  System: "PPARg homodimer (NR concentration 180 nM)"
  PBM binding z-score: 0.45
- Sequence String: "CCAACTAGGTCACCGGAAGGTCAAAGTCCGCATG"
  System: "PPARg homodimer (NR concentration 180 nM)"
  PBM binding z-score: 9.32
- Sequence String: "CGTCCAAGGTTAGCAGGTCAGTGAAAGCGACGTG"
  System: "PPARg homodimer (NR concentration 180 nM)"
  PBM binding z-score: 1.06
- Sequence String: "CGTCCAAGGTCAAGGTCAGTTAAAGAGACTCGAA"
  System: "PPARg homodimer (NR concentration 180 nM)"
  PBM binding z-score: 3.84
- Sequence String: "TCTTGTTGATCAACAGGAGGTTAAGAAAGATCGA"
  System: "PPARg homodimer (NR concentration 180 nM)"
  PBM binding z-score: -0.401
- Sequence String: "TCTTGTAGATCAAAGGCTAAGAAAGCCGAAGCCT"
  System: "PPARg homodimer (NR concentration 180 nM)"
  PBM binding z-score: -0.136
- Sequence String: "ACAGCCAGGTGAGTGAAGGTAACTCAGCTGGACG"
  System: "PPARg homodimer (NR concentration 180 nM)"
  PBM binding z-score: -0.774
